Where these numbers come from: patent US20110044986A1

biological target: T1, human Aβ42 fibrils (human); test: BIAcore, fibrils immobilized, antibody injected
T1 construct: Fibrillar aggregate of the 42-residue peptide prepared in vitro; also called Fibrillar Aβ42; Aβ42 amyloid fibrils
T1 sequence (peptide, as listed by the source): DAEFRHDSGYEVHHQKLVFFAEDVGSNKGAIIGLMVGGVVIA
# maps each entry to its koff
State the answer as a number, implicitly in s⁻¹.

These recorded examples may help you get a feel for the data.
| BINDER | koff / s⁻¹ |
| --- | --- |
| antibody 7.2 (antibody, V domains shown, Human anti-Aβ antibody; also called Ab 7.2) VH: QVQLVESGGGVVQPGRSLRLSCAASGFTFSSYGMHWVRQAPGKGLEWVAVIWYDGSNKYYADSVKGRFTISRDISKNTLYLQMNSLRAEDTAVYYCARSGPPLYSGIYYYYGMDVWGQGTTVTVSS VL: SSELTQDPAVSVALGQTVRITCQGDSLRAYYAHWYQQKPGQAPVLVIYGKNNRPSGIPDRFSGSNSGNTASLTITGAQAEDEADYYCNSRDSSGNHVVFGGGTKLTVL | 0.00029 |
| antibody 7.11 (antibody, V domains shown, Human anti-Aβ antibody; also called Ab 7.11) VH: QLQLQESGPGLVKPSETLSLTCTVSGGSISSSRYYWGWIRQPPGKGLEWIGSISYRGNTYYYPSLKSRVTISVDTSKNQFSLKLNSVTAADTAVYYCARRTYSSGWSYFDYWGQGTLVTVSS VL: SYELTQPYSMSVATAQMARITCGGNNIGSKAVHWYQQKPGQDPVLVIYSDSNRPSGIPERFSGSNPGNTATLTISRIEAGDEANYYCQVWDSSSDHWVFGGGTKLTVL | 0.00049 |
| antibody 1.14 (antibody, V domains shown, Human anti-Aβ antibody) VH: EVQLVESGGGLVQPGGSLRLSCAASGFTFSSYSMNWVRQAPGKGLEWVSYISRSSSAIYYADSVKGRFTISRDNAKNSLYLQMNSLRDEDTAVYYCARETTVTTRFYYYYYGVDVWGQGTTVTVSS VL: DIQMTQSPSSVSASVGDRVTITCRASQGISSWLAWFQQKPGKAPKLLIYAASSLQSGVPSRFSGSGSGTDFTLTISSLQPEDFATYYCQQANSFPRTFGQGTKVEIK | 0.00087 |

Kindly review the next binder as well.
Quick one: koff of antibody 6.18 (antibody, V domains shown, Human anti-Aβ antibody; also called Ab 6.18) VH: EVQLVESGGGLVQPGGSLRLSCAASGFTFSSYSMNWVRQAPGKGLEWLSYISSRSSTIYYADSVKGRFTISRDNAKNSLYLQMNSLRDEDTAVYYCARERTGTTRYYYYYYGMDVWGQGTTVTVSS VL: DIQMTQSPSSVSASVGDRVTITCRASQGISSWLAWSQQKPGKAPKLLIYAASSLQSGVPSRFSGSGSGTDFTLTISSLQPEDFATYYCQQANSFPRTFGQGTKVEIK ?
0.0026
